Tested on: HEK-293T
Assay: Multiplex assay against HEK293T;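 also: share of the cells with healthy nuclei that show this phenotype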
Assay type: toxicity, cell-based
Details: human, 12 h, 1 µM, compound concentration 1 uM, replicate 1
For each entry below, report its Population Tubulin-Different-Phenotype (%) value.

Field request: Population Tubulin-Different-Phenotype (%) | item: `CCNc1cc(N[C@H]2CC[C@H](O)CC2)nc(Nc2ccc3c(ccn3Cc3ccccc3)c2)n1`
46%

Same thing, different compound: `Cc1ccc(C(=O)Nc2cccc(C(F)(F)F)c2)cc1Nc1nc(-c2cccnc2)nc2c1cnn2C`
94%

Same thing, different compound: CN1CCN(C(=O)C(C)(C)c2ccc(C(=O)Nc3cn4cc(-c5cc(C(C)(C)C)cc(C(C)(C)C)c5)ccc4n3)cc2)CC1 [T3-CLK-N]
9%

Same thing, different compound: `CCCS(=O)(=O)c1nc(NC2CC2)cc(-c2ccc3c(ccn3C3CC(C)(C)NC(C)(C)C3)c2)n1`
80%

###

For each entry below, report its Population Tubulin-Different-Phenotype (%) value.
Tested on: Fibroblast
Test: Multiplex assay against human fibroblast
Type: toxicity, cell-based
Settings: 12 h, 1 µM, compound concentration 1 uM, replicate 1
Report as a plain number; the unit % is understood.

I'm curious: which Population Tubulin-Different-Phenotype (%) was measured for `COc1cccc2cc(-c3nc([C@H]4CC[C@H](C(=O)O)CC4)n4ncnc(N)c34)[nH]c12` tested on Fibroblast?
7

Same thing, different compound: `Cc1ccc2nc(NCCN)c3ncc(C)n3c2c1.O=C(O)C(F)(F)F.O=C(O)C(F)(F)F`
3

Same thing, different compound: `Cc1cc(C)c(S(=O)(=O)N(Cc2ccc(-c3cccc(S(C)(=O)=O)c3)cc2)Cc2ccc(C(F)(F)F)o2)c(C)c1`
55

Same thing, different compound: `CCc1cccc(CC)c1NC(=O)c1nn(C)c2c1CCc1cnc(Nc3ccc(C(=O)NC4CCN(C)CC4)cc3OC(F)(F)F)nc1-2`
47

Same thing, different compound: `CCOc1cc2ncc(C#N)c(Nc3ccc(OCc4ccccn4)c(Cl)c3)c2cc1NC(=O)/C=C/CN(C)C`
58

Same thing, different compound: `O=C(Nc1ccc(-n2nc(-c3cccnc3)cc2C(F)(F)F)cn1)c1ccc(-c2ccccc2)c(F)c1`
44

Same thing, different compound: `Cc1ccc(C(=O)Nc2cccc(C(F)(F)F)c2)cc1Nc1nc(-c2cccnc2)nc2c1cnn2C`
53

Same thing, different compound: `O=C(Nc1ccc(Cl)cc1)Nc1cccc(-c2cccc(N3CCCC3)n2)c1`
35

Same thing, different compound: `COc1cc(N2CCN(C)CC2)ccc1Nc1ncc2c(n1)N(C)c1ccccc1C(=O)N2C`
28

Same thing, different compound: `Cl.Oc1ccc2c3c1O[C@H]1c4[nH]c5c(c4C[C@@]4(O)[C@@H](C2)N(CC2CC2)CC[C@]314)C[C@@]1(O)[C@H]2Cc3ccc(O)c4c3[C@@]1(CCN2CC1CC1)[C@H]5O4`
31

Same thing, different compound: `O=C(Nc1ccc(-c2ccnc(Nc3ccc(N4CCOCC4)cc3)n2)cc1)[C@@H]1CCCN1`
47

Same thing, different compound: `Cl.O=c1c2cccn2c2ccccc2n1CCCN1CCC(c2ccc(Cl)cc2)CC1`
40

Same thing, different compound: `COC(=N)c1nc2ccc3ncnc(Nc4ccc(OC)cc4F)c3c2s1`
1

Same thing, different compound: `CN[C@@H]1C[C@H]2O[C@@](C)([C@@H]1OC)n1c3ccccc3c3c4c(c5c6ccccc6n2c5c31)C(=O)NC4`
10

Same thing, different compound: `CCCn1c(=O)c2[nH]c(-c3cnn(Cc4cccc(C(F)(F)F)c4)c3)nc2n(CC)c1=O`
59

Same thing, different compound: `CCCS(=O)(=O)Nc1ccc(F)c(C(=O)c2c[nH]c3ncc(Cl)cc23)c1F`
14
